Recorded values, source PubChem BioAssay (NCI).

Some molecules, each annotated with its measured growth.
- Tested on: ACHN renal
- Assay: NCI-60 one-dose screen, 48 h (100 = growth as untreated, 0 = no growth, -100 = all killed)
- Experimental conditions: 10 µM unless noted
About 83,000 compounds went through this panel and 20% of them were active in at least one assay; those are over-represented in the sample as a whole. Calls of active or inactive are those of the source. How the source made its calls: active means growth percent below 10; inactive means the rest.

Below are worked cases with known answers.
Molecule	Endpoint value
Oc1ccc(Cl)cc1Sc1cc(Cl)ccc1O	90.1% (inactive)
CCCCOc1nc2ccc(Cl)cc2cc1/C=C/C(=O)/C=C/c1ccc(Cl)cc1	81.5% (inactive)
O=C(NOC1OC(CO)C(O)C(O)C1O)Nc1ccccc1 (configuration not stated)	101% (inactive)
COC(=O)c1oc2c(C(=O)/C=C/c3ccc(OC)cc3)c(OCCN3CCOCC3)ccc2c1C	-34.5% (active)
O=C(Nc1ccc(-n2ccc3c(NC(=O)c4ccccc4)nccc32)cc1)Nc1ccc(Cl)c(Cl)c1	2.67% (active)
COc1ccccc1N1CCN(CCCOc2ccc(OCCCN3CCN(c4ccccc4OC)CC3)c(C(=O)c3cc(OC)c(OC)c(OC)c3)c2)CC1	157% (inactive)

Here's the next entry for you.
Form field: reported growth of COc1ccc(-c2nnc(SCC(=O)N3CCN(c4cc5c(cc4F)c(=O)c(C(=O)O)cn5C4CC4)CC3)o2)cc1OC
102% (inactive)

* * *

- Test system: OVCAR-8 ovarian
- Assay: NCI-60 one-dose screen, 48 h (100 = growth as untreated, 0 = no growth, -100 = all killed)
- Experimental conditions: 10 µM unless noted
The panel holds about 83,000 compounds, 20% with a hit somewhere; the sample as a whole holds those more often.
# if value of growth reaches 10%, tag y; if it stays below, tag n

Record excerpt, results attached:
Input smiles	Assay system	Discrete label
COc1ccc(C(=O)NC(=O)Nc2ccc3c(c2)NC(=O)/C3=C\c2[nH]c(C)c(CCC(=O)O)c2C)c(F)c1	OVCAR-8 ovarian	n
COc1cc2c(cc1OCCCCC(=O)Nc1ccc(-c3nc4ccccc4s3)cc1)N=C[C@@H]1CCCN1C2=O	OVCAR-8 ovarian	n
CN(C)CCCOc1c(Br)cc(/C=C/C(=O)N(C)CCc2cc(Br)c(OCCCN(C)C)c(Br)c2)cc1Br	OVCAR-8 ovarian	y
CN(C)C(=O)Nc1nc2cc(Cl)c(Cl)cc2[nH]1	OVCAR-8 ovarian	y

Now for another entry.
Tell me whether growth is at least 10% here: COC(=O)/C=C/C(=O)c1cc(C)cc(C)c1O
y

* * *

- Tested on: HT29 colon
- Assay: NCI-60 one-dose screen, 48 h
- Experimental conditions: 10 µM unless noted
About 83,000 compounds went through this panel and 20% of them were active in at least one assay; those are over-represented in the sample as a whole. The source made the active and inactive calls. How the source made its calls: active means growth percent below 10; inactive means the rest.
Form entry, call: pick from TRUE = active, FALSE = inactive

Record excerpt, results attached:
Molecule	Discrete label
COc1ccc(C2=NN(C(=O)COc3ccc(Cl)cc3)C(O)(c3cc(F)c(Cl)cc3Cl)C2)cc1OC (centres undefined)	TRUE
CC(=O)Oc1ccc(C(OC(C)=O)OC(C)=O)cc1	FALSE
S=C=NP1(N=C=S)=NP(N=C=S)(N=C=S)=NP(N=C=S)(N=C=S)=NP(N=C=S)(N=C=S)=N1 (centres undefined)	FALSE
COc1ccc(C2CC(c3cc(Cl)c(C)cc3OC)=NN2c2ccc(S(N)(=O)=O)cc2)cc1OC (centres undefined)	FALSE
COc1cc(CN(c2ccc(Cl)cc2)C2OC(=O)c3ccccc32)cc(OC)c1OC (centres undefined)	FALSE

So what was the verdict on Nc1ncnc2c1ccn2-c1cccc(NC(=O)c2cccc(C(F)(F)F)c2)c1 in this test?
FALSE

So what was the verdict on CCCC(=O)Oc1ccc(/C(=C(\C)c2ccc(Cl)cc2)c2ccc(OCCN(CC)CC)cc2)cc1 in this test?
TRUE

So what was the verdict on CC(C)(C)C(=O)/C=c1/[nH]c(=O)/c(=C/c2ccccc2O)s1 in this test?
FALSE

So what was the verdict on COC(=O)c1ccc2c(c1)Oc1ccc(Cl)cc1-c1cc(C)nn1-2 in this test?
FALSE

* * *

Some molecules, each annotated with its measured growth.
- System: MOLT-4 leukemia
- Assay: NCI-60 one-dose screen, 48 h (100 = growth as untreated, 0 = no growth, -100 = all killed)
- Experimental conditions: 10 µM unless noted
Compounds without any hit were thinned out: in the full panel of roughly 83,000, 20% have a hit.
Only the number, expressed in %, is required.

Below are worked cases with known answers.
Input smiles	Endpoint value
Cc1cccc(Cc2cnc(NC(=O)CCc3ccc(C)o3)s2)c1	8.52
C=C1C(=O)O[C@H]2[C@H]1CC/C(C(=O)NCCOCCOCC(=O)Nc1ccc(OC)c(C(N)=O)c1O)=C\CC[C@@]1(C)O[C@@H]21	66.2
CCCN1C(=O)CSC1=Nc1ccc2cc3ccc(N=C4SCC(=O)N4CCC)cc3nc2c1	-18.8

Here's the next entry for you.
Form field: reported growth of CN1CCN(Cn2nc(-c3cc(F)c(Cl)cc3Cl)n(/N=C/c3ccc(N(C)C)cc3)c2=S)CC1
99.1

* * *

- Test system: HS 578T breast
- Assay: NCI-60 one-dose screen, 48 h (100 = growth as untreated, 0 = no growth, -100 = all killed)
- Experimental conditions: 10 µM unless noted
- Description: Growth inhibition of the HS 578T human tumor cell line is measured as a screen for anti-cancer activity. Cells are grown in 96 well plates and exposed to the test compound for 48 hours. Compounds are tested at a single concentration, which is 10^-5 M for most compounds. The reported endpoint is percent growth (GI% or GIPRCNT), where numbers from 0 - 100% represent growth inhibition, and numbers from -100% - 0 represent cell death. For example, a value of 40 represents 60% growth inhibition. […]
About 83,000 compounds went through this panel and 20% of them were active in at least one assay; those are over-represented in the sample as a whole.
Metric name: growth (%)
Only the number, expressed in %, is required.

Below are worked cases with known answers.
Molecule	Units	growth
COc1ccc(Cl)cc1NC(=O)c1cc2c([nH]1)-c1nc(N)sc1CCC2	%	108
Nc1ncnc2c1ncn2C1OC(COC(c2ccccc2)(c2ccccc2)c2ccccc2)C(O)C1O (centres undefined)	%	84.1
COc1ccc2c(-c3ccc(F)cc3)c(C#N)c(=NC(C)=O)oc2c1	%	42.9
OCc1cn(-c2ccc(Cl)cc2)nc1-c1ccc(O)cc1	%	105
CC(/C=C/C=C(\C)[C@H](O)[C@H](C)C(=O)O[C@H]1C[C@H](C)C=C2C=C[C@@]3(C)O[C@@H](O)CC(=O)[C@]3(C)[C@H]21)=C\C=C\C(=O)O	%	-3.26
Cl[C@@H]1CCO[C@H](c2cc3ccccc3c3ccccc23)C1	%	103

Query growth on HS 578T breast for O=[N+]([O-])c1cccc2cc(S(=O)(=O)O)ccc12
107

Query growth on HS 578T breast for O=C1C(Cl)=C(Nc2cccc3cc4ccccc4nc23)C(=O)c2ccccc21
95.2

Query growth on HS 578T breast for Nc1ncnc2c1c(-c1ccc(Oc3ccccc3)cc1)nn2C[C@@H]1SSC[C@H]1O
16.9

* * *

- System: TK-10 renal
- Assay: NCI-60 one-dose screen, 48 h (100 = growth as untreated, 0 = no growth, -100 = all killed)
- Experimental conditions: 10 µM unless noted
The panel holds about 83,000 compounds, 20% with a hit somewhere; the sample as a whole holds those more often.
Metric name: growth (%)
Only the number, expressed in %, is required.

Below are worked cases with known answers.
Molecule	Units	growth
CC(C)NCC(O)COc1ccc(CC(N)=O)cc1 (stereo not given)	%	105
CC(CCC(=O)O)[C@H]1CCC2C3C(=O)C[C@@H]4CC(=O)CC[C@]4(C)C3CC(=O)[C@@]21C (stereo not given in full)	%	116
CC(C)C(=O)Nc1nc2c(s1)CCCc1ccn(S(=O)(=O)c3ccccc3)c1-2	%	83.6
CCCCn1c(-c2cccc(OC)c2)nc2cc(OC)c(OC)cc2c1=O	%	215

Form field: reported growth of CC1(C)N=C(N)N=C(N)N1c1ccc(F)c(C(F)(F)F)c1
65.5

* * *

- Tested on: A498 renal
- Assay: NCI-60 one-dose screen, 48 h (100 = growth as untreated, 0 = no growth, -100 = all killed)
- Experimental conditions: 10 µM unless noted
Compounds without any hit were thinned out: in the full panel of roughly 83,000, 20% have a hit.
Lab note: cut-off is 90%. Strictly less in growth is true. Exactly 90% or more is false.

Molecule	Discrete label
CCN(CC)CC(=O)Nc1c(C)cccc1C	false

Given the entry O=C(O)c1ccc2nc(-c3ccc(OCCCCCOc4ccc(-c5nc6ccc(C(=O)O)cc6[nH]5)cc4)cc3)[nH]c2c1 , would its reported growth be below 90%?
true

Given the entry O=[N+]([O-])c1cccc2cc(S(=O)(=O)O)ccc12 , would its reported growth be below 90%?
false

Given the entry O=C(O)c1cc2ccccc2cc1Nc1ccccc1 , would its reported growth be below 90%?
false

Given the entry COc1ccccc1S(=O)(=O)Nc1ccc2c3c(cc(-c4ccoc4)nc13)C(=O)N2C , would its reported growth be below 90%?
true

Given the entry Nc1nc(-c2cc3c(cc2Cl)NC(=O)/C3=C/c2ccc(Cl)cc2)cs1 , would its reported growth be below 90%?
true

Given the entry Cc1cc2nc(-c3c(N)ncc(C#N)c3-c3ccc(Cl)cc3)[nH]c2cc1C , would its reported growth be below 90%?
true

Given the entry COc1ccc(Cl)cc1NC(=O)c1cc2c([nH]1)-c1nc(N)sc1CCC2 , would its reported growth be below 90%?
false

Given the entry COC(=O)c1oc2c(C(C)=O)c(OCCCN(C)C)ccc2c1C , would its reported growth be below 90%?
false

Given the entry COc1ccc2c(c1)OC(N)=C(C#N)C2c1ccc(F)c(F)c1 (stereo not given) , would its reported growth be below 90%?
true

Given the entry Nc1ncc(-c2ccc3ncnc(Nc4ccc(F)c(Cl)c4)c3c2)cn1 , would its reported growth be below 90%?
true

Given the entry COc1ccc(-c2nnc(SCC(=O)N3CCN(c4cc5c(cc4F)c(=O)c(C(=O)O)cn5C4CC4)CC3)o2)cc1OC , would its reported growth be below 90%?
false
